- assayedSystem: Glutamate receptor 2 (Homo sapiens, UniProt P42262)
- Sequence (P42262 whole entry, the tested form may be a part): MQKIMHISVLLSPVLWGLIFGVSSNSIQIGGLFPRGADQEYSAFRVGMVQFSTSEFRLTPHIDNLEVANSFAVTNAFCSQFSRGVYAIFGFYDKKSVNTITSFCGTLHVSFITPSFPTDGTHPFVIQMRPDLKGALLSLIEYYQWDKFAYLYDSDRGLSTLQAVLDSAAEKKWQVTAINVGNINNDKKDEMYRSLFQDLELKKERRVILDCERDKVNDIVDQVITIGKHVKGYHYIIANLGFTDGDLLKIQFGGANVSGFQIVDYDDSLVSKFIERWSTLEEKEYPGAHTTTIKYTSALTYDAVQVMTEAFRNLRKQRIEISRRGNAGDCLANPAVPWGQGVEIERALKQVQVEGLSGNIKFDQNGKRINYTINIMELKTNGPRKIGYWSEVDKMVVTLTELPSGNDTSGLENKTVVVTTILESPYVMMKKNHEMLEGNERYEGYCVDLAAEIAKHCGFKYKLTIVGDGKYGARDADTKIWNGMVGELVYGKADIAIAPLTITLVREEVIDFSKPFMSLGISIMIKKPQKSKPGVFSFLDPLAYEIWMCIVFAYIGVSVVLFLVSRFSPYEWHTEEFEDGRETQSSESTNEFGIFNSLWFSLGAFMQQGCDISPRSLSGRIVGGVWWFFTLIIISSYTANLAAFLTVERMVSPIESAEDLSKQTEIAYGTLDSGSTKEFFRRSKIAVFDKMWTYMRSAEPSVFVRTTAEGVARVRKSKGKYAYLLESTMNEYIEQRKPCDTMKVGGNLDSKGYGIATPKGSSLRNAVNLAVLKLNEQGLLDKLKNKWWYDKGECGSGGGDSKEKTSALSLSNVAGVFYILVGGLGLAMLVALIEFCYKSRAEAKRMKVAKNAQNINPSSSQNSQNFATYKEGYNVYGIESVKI
- measurementDescription: Modulatory activity at GluA2 receptor LBD
pEC50: −log10 of the molar value.
valueKind: pEC50

[
  {
    "molecule": "CC(C)S(=O)(=O)N[C@H]1Cc2ccc(Cn3ncc(CO)c3C(F)(F)F)cc2C1",
    "assayValue": 5.40
  }
]

A. O=S(=O)(N[C@@H]1Cc2ccc(Cn3cc(CO)c(C(F)(F)F)n3)cc2C1)C1CC1
B. CC(C)S(=O)(=O)N[C@@H]1Cc2ccc(Cn3cc(CO)c(C(F)(F)F)n3)cc2C1
C. CC(C)S(=O)(=O)N[C@H]1Cc2ccc(Cn3cc(CCO)c(C(F)(F)F)n3)cc2C1
Put the items in sequence by pEC50, from largest down. State the ranking by listing the labels in the requested order. B, C, A

A. CC(C)S(=O)(=O)NC1CCc2cc(Cn3cc(CO)c(C(F)(F)F)n3)ccc21 (centres undefined)
B. CCS(=O)(=O)N[C@H]1Cc2ccc(Cn3cc(CO)c(C(F)(F)F)n3)cc2C1
C. O=S(=O)(NC1CCc2cc(Cn3cc(CO)c(C(F)(F)F)n3)ccc21)C1CC1 (centres undefined)
D. CN(C)S(=O)(=O)N[C@@H]1Cc2ccc(Cn3cc(CO)c(C(F)(F)F)n3)cc2C1
E. O=S(=O)(N[C@@H]1Cc2ccc(Cn3cc(CO)c(C(F)(F)F)n3)cc2C1)C(F)(F)F
# rank by pEC50, ascending (min first) Output spec: labels arranged per the requested ranking. E, D, B, C, A
